The measured values listed here are drawn from the supplement of paper PMC12325586.

Test system: MIA PaCa-2
Details: OFD1 knockdown: no (no doxycycline)
Property: log10(IC50 cell viability); scope: individual compounds
Give log10 of IC50 cell viability, with IC50 cell viability taken in µM.

Some solved cases for reference:
# STRUCTURE SMILES, ASSAY TARGET, log10(IC50 cell viability)
data = [
    ("C=C1C[C@@H]2[C@H](CC[C@]3(C)C(=O)CC[C@@H]23)[C@@]2(C)C=CC(=O)C=C12", "MIA PaCa-2", 1.73),
    ("Cn1cc(CNCC2CCN(c3ncc(C(=O)NO)cn3)CC2)c2ccccc21", "MIA PaCa-2", -0.39),
    ("Nc1ccc(C(=O)O)c(O)c1", "MIA PaCa-2", 0.92),
    ("Cn1cnc([N+](=O)[O-])c1Sc1ncnc2[nH]cnc12", "MIA PaCa-2", 1.45),
    ("O=c1[nH]c(=O)n([C@H]2C[C@H](O)[C@@H](CO)O2)cc1F", "MIA PaCa-2", 1.06),
]

I would be grateful if you could share the reported log10(IC50 cell viability) for `Nc1ncn([C@H]2C[C@H](O)[C@@H](CO)O2)c(=O)n1` . 1.87

Form field: reported log10(IC50 cell viability) of `CC1(C)CCC(c2ccc(Cl)cc2)=C(CN2CCN(c3ccc(C(=O)NS(=O)(=O)c4ccc(N[C@H](CCN5CCOCC5)CSc5ccccc5)c(S(=O)(=O)C(F)(F)F)c4)cc3)CC2)C1` 1.27

Data request, read-out log10(IC50 cell viability), for `Cc1ccc(F)c(NC(=O)Nc2ccc(-c3cccc4[nH]nc(N)c34)cc2)c1` 0.80

# input compound: `Cc1c(C(=O)NN2CCCCC2)nn(-c2ccc(Cl)cc2Cl)c1-c1ccc(Cl)cc1` ; wanted: its log10(IC50 cell viability) 1.28
